assay: Solubility estimation; assay type: physicochemical; details: aqueous, thermodynamic from solid
assay-endpoint: solubility thermodynamic

Which solubility thermodynamic value is on record for O=C(Cc1ccc(-c2ccc(OCCN3CCOCC3)cc2)cn1)NCc1ccccc1 [Form A] ?
< 1500 µg/mL
